assay.explanation: Plasma pharmacokinetics of FLO after a single dietary administration
cond: in vivo, po, 10 mg/kg

compound	output.unit	half-life
CS(=O)(=O)c1ccc([C@@H](O)[C@@H](CF)NC(=O)C(Cl)Cl)cc1 [FLO, florfenicol]	h	13

----------
assay.explanation: Plasma pharmacokinetics of FLO after a single dietary administration
cond: European seabass (Dicentrarchus labrax), plasma, oral, 10 mg/kg
Method: Apparently healthy European seabass averaging about 100 ± 12 g were obtained from a local fish farm (Selonda aquaculture S.A) and distributed in two cages (1 m^3) located within a 50 m^3 cement tank (85 fish/cage). […] Briefly, 1 ml of plasma sample was placed in a 10 ml polypropylene centrifuge tube with 500 μl of acetonitrile:water (35:65, v/v). […] The water‐based phase was filtered using 0.22 μm nylon filter and the filtrate (200 μl) was then analysed by HPLC. […]

structure	concentration at 24 hr (ng/mL)
CS(=O)(=O)c1ccc([C@@H](O)[C@@H](CF)NC(=O)C(Cl)Cl)cc1	550
